A collection of molecules and their measured SI
Molecular target: Dipeptidyl peptidase II and dipeptidyl peptidase IV (DPP2 and DPP4) (Homo sapiens) (UniProt P27487+Q9UHL4)
Experiment: Ratio of IC50 for DPP IV to that of IC50 for DPP II
Type: protein assay

Below: 4 molecules and their reported SI.
molecule | SI
COc1ccc(CNCC[C@H](N)C(=O)N2CCCCC2)c(OC)c1 | > 180000
N[C@@H](CCNCc1ccc(Cl)cc1)C(=O)N1CCCC(O)C1 (stereo partly specified) | > 20000
CC1CCN(C(=O)[C@@H](N)CCNCc2ccc(Cl)cc2)CC1 | > 910000
CC1CCCCN1C(=O)[C@@H](N)CCNCc1ccc(Cl)cc1 (stereo partly specified) | > 220000

Now turn to the next molecule.
Exercise: Answer with the recorded SI for the molecule listed here: `NCC[C@H](NC1CCNCC1)C(=O)N1CCCCC1`
Solution: > 59
